Listed here: compounds with reported IC50 for HLA-B*0702 (Homo sapiens, UniProt P01889).
Write the number in nM without appending the unit.

compound	IC50 / nM
CC(C)C[C@H](NC(=O)[C@@H]1CCCN1C(=O)[C@H](Cc1c[nH]c2ccccc12)NC(=O)[C@H](CO)NC(=O)[C@@H]1CCCN1C(=O)[C@H](C)NC(=O)[C@@H]1CCCN1C(=O)[C@@H](N)Cc1ccccc1)C(=O)O [p53.86.F1]	10
CC[C@H](C)[C@H](NC(=O)[C@@H]1CCCN1C(=O)[C@H](Cc1c[nH]c2ccccc12)NC(=O)[C@H](CO)NC(=O)[C@@H]1CCCN1C(=O)[C@H](C)NC(=O)[C@@H]1CCCN1C(=O)[C@H](C)NC(=O)[C@@H]1CCCN1C(=O)[C@@H](N)Cc1ccccc1)C(=O)O [p53.84.F1110]	13
CC[C@H](C)[C@H](NC(=O)[C@@H]1CCCN1C(=O)[C@H](C)NC(=O)[C@H](C)NC(=O)[C@@H]1CCCN1C(=O)[C@@H](NC(=O)[C@@H]1CCCN1C(=O)[C@@H](N)Cc1ccccc1)[C@@H](C)O)C(=O)O [p53.79.F118]	90

stdin: I am curious: what IC50 value has been reported for CC(C)C[C@H](NC(=O)[C@@H]1CCCN1C(=O)[C@H](Cc1c[nH]c2ccccc12)NC(=O)[C@H](CO)NC(=O)[C@@H]1CCCN1C(=O)[C@@H](N)Cc1ccccc1)C(=O)N[C@@H](CO)C(=O)N[C@@H](CO)C(=O)N[C@@H](CO)C(=O)N[C@H](C(=O)O)C(C)C [p53.88.F1] ?
stdout: 3.2

stdin: I am curious: what IC50 value has been reported for CC[C@H](C)[C@H](NC(=O)[C@@H](NC(=O)[C@@H](NC(=O)[C@@H](NC(=O)[C@@H](NC(=O)[C@H](CC(C)C)NC(=O)[C@@H](NC(=O)[C@@H]1CCCN1C(=O)[C@@H](N)Cc1ccccc1)[C@@H](C)CC)[C@@H](C)O)[C@@H](C)CC)[C@@H](C)CC)[C@@H](C)O)C(=O)O [p53.249.F119] ?
stdout: 74

stdin: I am curious: what IC50 value has been reported for CC[C@H](C)[C@H](NC(=O)[C@@H]1CCCN1C(=O)[C@@H](NC(=O)[C@@H]1CCCN1C(=O)[C@H](C)NC(=O)[C@H](C)NC(=O)[C@@H]1CCCN1C(=O)[C@@H](N)Cc1ccccc1)[C@@H](C)O)C(=O)O [p53.76.F118] ?
stdout: 128

stdin: I am curious: what IC50 value has been reported for CC[C@H](C)[C@H](NC(=O)[C@H](CO)NC(=O)[C@H](CO)NC(=O)[C@H](CO)NC(=O)[C@H](CC(C)C)NC(=O)[C@@H]1CCCN1C(=O)[C@H](Cc1c[nH]c2ccccc12)NC(=O)[C@H](CO)NC(=O)[C@@H]1CCCN1C(=O)[C@@H](N)Cc1ccccc1)C(=O)O [p53.88.F1110] ?
stdout: 5.5

====

target: A*0202 (Homo sapiens, UniProt P04439, D140Y/D185E/D98H/E176V/E277Q/G131W/G231S/I119L/I121R/I166T/I218V/L180W/L300P/L318F/N151K/N90K/P208A/P217A/Q67R/Q86G/Q94H/R138H/R169H/T345S); experiment: biochemical
Non-standard residues stand in square brackets, D forms with d. Residues, ends and D or L forms follow the SMILES beside them. Abu = CC[C@H](N)C(=O)O
Readings of log10 IC50 for the listed compounds
Parameter value (number): base-10 log of IC50 in nM.

Answered cases to consult:
compound	log10 IC50
CC[C@H](NC(=O)[C@@H](NC(=O)[C@H](CCCCN)NC(=O)[C@H](C)NC(=O)[C@H](CC(C)C)NC(=O)[C@H](CCC(N)=O)NC(=O)[C@@H](N)CC)[C@@H](C)O)C(=O)N1CCC[C@H]1C(=O)N[C@H](C(=O)O)C(C)C [p53.135B1B7] (H-[Abu]QLAKT[Abu]PV-OH)	1.85
CSCC[C@H](NC(=O)[C@H](Cc1c[nH]cn1)NC(=O)[C@H](CCC(N)=O)NC(=O)[C@H](CO)NC(=O)[C@H](CC(C)C)NC(=O)[C@@H](N)CCCCN)C(=O)N[C@H](C(=O)N[C@@H](CCC(=O)O)C(=O)N[C@H](C(=O)O)C(C)C)[C@@H](C)O	1.97
CC[C@H](C)[C@H](NC(=O)[C@H](CC(C)C)NC(=O)[C@@H](N)Cc1c[nH]cn1)C(=O)N[C@@H](CCCNC(=N)N)C(=O)N[C@H](C(=O)N[C@@H](CCC(=O)O)C(=O)NCC(=O)N[C@@H](CC(N)=O)C(=O)N[C@@H](CC(C)C)C(=O)N[C@@H](CCCNC(=N)N)C(=O)N[C@H](C(=O)O)C(C)C)C(C)C	3.14
CC[C@H](NC(=O)[C@H](Cc1ccccc1)NC(=O)[C@H](CCSC)NC(=O)[C@@H](N)CCCCN)C(=O)N[C@@H](CCC(N)=O)C(=O)N[C@@H](CC(C)C)C(=O)N[C@@H](C)C(=O)N[C@@H](CCCCN)C(=O)N[C@H](C(=O)O)C(C)C [p53.132B4V9] (H-KMF[Abu]QLAKV-OH)	1.11

stdin: I am curious: what log10 IC50 value has been reported for CC(C)C[C@H](NC(=O)[C@@H]1CCCN1C(=O)[C@H](CO)NC(=O)[C@H](CC(C)C)NC(=O)[C@@H](NC(=O)[C@H](CC(N)=O)NC(=O)[C@H](CC(N)=O)NC(=O)[C@H](CCC(=O)O)NC(=O)[C@@H]1CCCN1C(=O)[C@H](CC(C)C)NC(=O)[C@@H](N)CC(C)C)C(C)C)C(=O)O ?
stdout: 0.79

====

molecular target: B*3501 (Homo sapiens, UniProt P01889, A329T/A93T/A95T/C349S/D201E/D98Y/E176V/E187L/E204Q/E69T/I218V/K202T/L119I/Q94N/R155S/R180L/S121R/S35A/S48A/T118I/V127L/V306I/V36M/Y140S/Y91F); experiment: biochemical
observation_type: pIC50
Please express pIC50 as -log10 of the molar concentration.

stdin: I am curious: what pIC50 value has been reported for CC(C)C[C@H](NC(=O)[C@@H]1CCCN1C(=O)[C@H](Cc1c[nH]c2ccccc12)NC(=O)[C@H](CO)NC(=O)[C@@H]1CCCN1C(=O)[C@H](C)NC(=O)[C@@H]1CCCN1C(=O)[C@H](C)NC(=O)[C@@H]1CCCN1C(=O)[C@@H](N)Cc1ccccc1)C(=O)O ?
stdout: 8.29

stdin: I am curious: what pIC50 value has been reported for CC[C@H](C)[C@H](NC(=O)[C@@H]1CCCN1C(=O)[C@@H]1CCCN1C(=O)[C@H](C)NC(=O)[C@H](C)NC(=O)[C@H](CCC(=O)O)NC(=O)[C@@H]1CCCN1C(=O)[C@H](CCSC)NC(=O)[C@H](CCCNC(=N)N)NC(=O)[C@@H]1CCCN1C(=O)[C@@H](N)Cc1ccccc1)C(=O)O ?
stdout: 5.26

stdin: I am curious: what pIC50 value has been reported for CC[C@H](C)[C@H](NC(=O)[C@H](CO)NC(=O)[C@H](CO)NC(=O)[C@H](CO)NC(=O)[C@H](CC(C)C)NC(=O)[C@@H]1CCCN1C(=O)[C@H](Cc1c[nH]c2ccccc12)NC(=O)[C@H](CO)NC(=O)[C@@H]1CCCN1C(=O)[C@@H](N)Cc1ccccc1)C(=O)O ?
stdout: 7.00

====

biological target: HLA-B*0702 (Homo sapiens)
Readings of IC50 for the listed compounds
Write the number in µM without appending the unit.

structure_smiles_string	experimental_target	unit_string	IC50
CC[C@H](C)[C@H](NC(=O)[C@H](C)NC(=O)[C@@H]1CCCN1C(=O)[C@H](C)NC(=O)[C@@H]1CCCN1C(=O)[C@H](C)NC(=O)[C@@H](NC(=O)[C@@H]1CCCN1C(=O)[C@@H]1CCCN1C(=O)[C@@H](N)Cc1ccccc1)C(C)C)C(=O)O	HLA-B*0702 (Homo sapiens)	µM	0.29

Proceeding to the next compound to report its IC50.
stdin: I am curious: what IC50 value has been reported for CC[C@H](C)[C@H](NC(=O)[C@@H]1CCCN1C(=O)[C@@H](NC(=O)[C@@H]1CCCN1C(=O)[C@H](C)NC(=O)[C@H](C)NC(=O)[C@@H]1CCCN1C(=O)[C@H](C)NC(=O)[C@@H]1CCCN1C(=O)[C@@H](N)Cc1ccccc1)[C@@H](C)O)C(=O)O ?
stdout: 0.0015

====

biological target: B*5301 (Homo sapiens, UniProt P01889, A329T/A93T/A95T/C349S/D201E/D98Y/E176V/E187L/E204Q/E69T/G107R/I218V/K202T/L105A/L119I/N104I/Q94N/R106L/R155S/R180L/S101N/S121R/S35A/S48A/T118I/V127L/V306I/V36M/Y140S/Y91F); assay: biochemical
No end group written: not given here.
Readings of IC50 for the listed sequences
Write the number in nM without appending the unit.

In [3]: df
Out[3]:
          monomer_sequence  observation_type  unit_string  assay_value
0  FPAAPTPAI [p53.76.F119]              IC50           nM          7.2

stdin: I am curious: what IC50 value has been reported for FPAPSWPI [p53.86.F118] ?
stdout: 3.3

stdin: I am curious: what IC50 value has been reported for FPILTIITL [p53.249.F1] ?
stdout: 7.2
